Where do these numbers come from? They come from PubChem BioAssay (NCI).

Measurement record for MDA-MB-435; quantity recorded: GI50.

Example results:
{"Compound": "Cc1ccccc1C(C(=O)NC1CCCCC1)N(C(=O)Cn1ccnc1C)c1cccc(F)c1 (stereo not given)", "Assay system": "MDA-MB-435", "Measured value": "> 100 µM"}
{"Compound": "CCN1CCC(CC(=O)Nc2n[nH]c3nc(-c4cccs4)c(Br)cc23)CC1", "Assay system": "MDA-MB-435", "Measured value": "5.35 µM"}
{"Compound": "O=C1CC/C(=C\\COc2ccc3ccc(=O)oc3c2)O1", "Assay system": "MDA-MB-435", "Measured value": "3.41 µM"}

Query: # query: GI50 of entry "COc1ccc(-n2c(C)nc3c(c(C)nn3-c3ccccc3)c2=O)cc1"
Response: 0.0305 µM

Query: For the compound "C=C(C)[C@@H]1CC[C@]2(C(=O)NCCNCCNCCN)CC[C@]3(C)[C@H](CC[C@@H]4[C@@]5(C)CCC(=O)C(C)(C)[C@@H]5CC[C@]43C)[C@@H]12" , what GI50 is on record?
Response: 8.7 µM
